ASSAY_REMARKS: in vivo
MEASUREMENT_CONDITIONS: rhesus monkey, topical or ocular, In Vivo - Monkey Plasma, 1 hour, 200 mg on 49 cm^2, 25% ethyl laurate in N-methyl pyrrolidone
MEASUREMENT_TYPE: concentration at 1 h (ng/mL)
Quick reminder: number only, in ng/mL, skip the unit.

Return reported concentration at 1 h; argument: COc1ccc2c(c1)c(CC(=O)O)c(C)n2C(=O)c1ccc(Cl)cc1
370

###

ASSAY_REMARKS: in vivo
MEASUREMENT_CONDITIONS: rhesus monkey, topical or ocular, In Vivo - Monkey Plasma, 2 hours, 200 mg on 49 cm^2, 25% ethyl laurate in N-methyl pyrrolidone
MEASUREMENT_TYPE: concentration at 2 h (ng/mL)
Quick reminder: number only, in ng/mL, skip the unit.

Return reported concentration at 2 h; argument: COc1ccc2c(c1)c(CC(=O)O)c(C)n2C(=O)c1ccc(Cl)cc1
505

###

ASSAY_REMARKS: in vivo
MEASUREMENT_CONDITIONS: rhesus monkey, topical or ocular, In Vivo - Monkey Plasma, 5 hours as printed, 200 mg on 49 cm^2, 25% ethyl laurate in N-methyl pyrrolidone
Procedure: Male rhesus monkeys weighing 10-14 Kg each were used as the subject. An appropriate area of the monkey's chest was shaved 24 hours before drug application. Drug formulations comprising the PEAC were applied to a certain area of the chest as indicated in each example. […] Blood samples were taken at appropriate intervals after the application. The heparinized blood was centrifuged, and the plasma was removed and stored at -20° C. until analyzed. […]
MEASUREMENT_TYPE: concentration at 5 h (ng/mL)
Quick reminder: number only, in ng/mL, skip the unit.

Return reported concentration at 5 h; argument: COc1ccc2c(c1)c(CC(=O)O)c(C)n2C(=O)c1ccc(Cl)cc1 [Indomethacin]
110

###

ASSAY_REMARKS: in vivo
MEASUREMENT_CONDITIONS: rhesus monkey, topical or ocular, In Vivo - Monkey Plasma, 3 hours, 200 mg on 49 cm^2, 25% ethyl laurate in N-methyl pyrrolidone
MEASUREMENT_TYPE: concentration at 3 h (ng/mL)
Quick reminder: number only, in ng/mL, skip the unit.

Return reported concentration at 3 h; argument: COc1ccc2c(c1)c(CC(=O)O)c(C)n2C(=O)c1ccc(Cl)cc1 [Indomethacin]
420

Ref: patent US4710497A
